measure_name: melting point

smiles_entry | melting point
OCCN1CCN(Cc2ccc(F)cc2)CC1 | 55 to 56 °C

Look up melting point for the entries below, preserving their order.
1. O=C1C(c2ccc(Br)cc2)=C(O)c2ccccc21
2. O=C(c1ccccc1)c1cnc2ccc(Br)cn2c1=O
3. CC(Nc1cc(C)ccn1)=C(C#N)C(=O)c1ccccc1

["137 to 138 °C", "208 to 210 °C", "102 to 103 °C"]

====

Kindly state melting point for each of the entries shown.

smiles_entry | melting point
CSc1cnccn1 | 44 to 47 °C

For each of the compounds below, note its melting point.
1. O=C(O)CSCSCC(=O)O
2. Cc1nc(-c2ccccc2)sc1CO

1. 125 to 128 °C
2. 99 to 102 °C

====

Provide the reported melting point of each item.

compound | melting point
N#CC(C#N)=NNc1cc(Cl)cc(Cl)c1 | 192 to 194 °C

Fill in melting point for each of the 4 compounds listed.
1. O=[N+]([O-])c1ccc(-c2nnc3n2CN(c2ccccc2[N+](=O)[O-])CS3)cc1
2. NC(=O)c1ccc(-c2ccccn2)s1
3. O=C(Nc1nnc(-c2ccc(Cl)cc2)o1)c1ccc(Cl)cc1Cl
4. O=C1C(=C2C(=Cc3coc4ccccc4c3=O)C(=O)c3ccccc32)C(=O)c2ccccc21

183 to 185 °C
197 to 199 °C
212 to 213 °C
250 to 251 °C

Go through the list and state melting point for each entry.
1. COc1cc2c(cc1OC)C(CCO)NCC2 (stereo not drawn)
2. c1ccc(-c2cnco2)cc1
3. Nc1ccc2c(n1)[nH]c1ccccc12
4. N#CC=P(c1ccccc1)(c1ccccc1)c1ccccc1
5. CSc1nc(N)c(C(=O)c2ccc([N+](=O)[O-])cc2)s1
6. CC(=O)NC1C(O)CC(O)(C(=O)O)OC1C(O)C(O)CO (stereo not drawn)
7. Cc1cc(C)c(CC(=NOCC(=O)O)c2cc3ccccc3o2)c(C)c1

["103 to 107 °C", "37 to 39 °C", "202 °C", "189 to 198 °C", "200 to 202 °C", "184 to 186 °C", "143 to 144 °C"]

====

Provide the recorded melting point for the entries that follow.

# count of solved cases: 3
compound | measure_name | obs_value
O=C(CC(=O)C(F)F)c1ccccc1 | melting point | 37 to 45 °C
CC(=O)OC1CCC2C3CCC4CC(C(C)=O)=CCC4(C)C3CCC12C (centres undefined) | melting point | 115 to 140 °C
O=C(O)C(CCBr)(c1ccccc1)c1ccccc1 | melting point | 135 to 137 °C

Kindly consider the entry below.
Given item C=C1C(C(=O)O)C1C(=O)O (centres undefined) , the value recorded as its melting point is 197 to 201 °C

====

Assign melting point to each entry below.

Check out these entries, answers already filled in.
compound | obs_value
O=C(O)c1ccc(=O)oc1 | 203 to 205 °C
O=S(=O)(Cl)c1ccc2c(c1)OCCCO2 | 50 to 52 °C
C[Si](C)(C)c1ccc([Si](C)(C)C)cc1 | 92 to 96 °C
Cc1c(C)c(C)c(C=O)c(C)c1C | 146 to 148 °C
CC(C)(CCCC(C)(C)C(=O)O)C(=O)O | 169 to 171 °C
O=C1NC2C=CC1C2 (single isomer, unassigned; (-)) | 92 to 100 °C

State the recorded melting point for every item in the following list.
1. CC(=O)c1cc(-c2ccc(Cl)c(Cl)c2)no1
2. O=C(Nc1ccc2cc(OC(=O)c3ccccc3)ccc2c1)c1ccccc1
3. COc1ccc(C(=O)CC(=O)C(F)(F)F)cc1
4. O=C(O)Cc1c(F)ccc(F)c1F
5. COC(=O)c1ccc(Oc2cccnc2)o1
6. Cc1onc(-c2ccccc2)c1C(=O)O

1: 130 to 132 °C; 2: 224 to 229 °C; 3: 57 to 58 °C; 4: 111 to 114 °C; 5: 78 to 79 °C; 6: 192 to 193 °C

====

Kindly supply the reported melting point values for the records listed here.

Study these solved cases before continuing.
molecule | measure_name | obs_value
NC(=O)C(F)(F)C(F)(F)C(F)(F)F | melting point | 103 to 105 °C
O=C(O)c1cccc(F)c1C(=O)O | melting point | 171 to 175 °C
O=C(O)C1CC(=O)N(Cc2cccs2)C1 (centres undefined) | melting point | 144 to 146 °C
O=Cc1c(-c2ccccc2)nn(-c2ccccc2)c1Cl | melting point | 109 to 110 °C
O=Cc1ccc(-c2ccc(C(F)(F)F)cn2)cc1 | melting point | 91 to 93 °C

Hi! Can you tell me melting point for each of these molecules?
1. COc1ccc(C(=O)O)c(Cl)c1OC
2. C/C=C/C1Nn2c(nnc2-c2cccc([N+](=O)[O-])c2)S1 (centres undefined)
3. CC(=O)Oc1cc2c(cc1Cl)C1(OC(=O)c3ccccc31)c1cc(Cl)c(OC(C)=O)cc1O2
4. Cc1c(C(=O)CCl)sc2ccc(Cl)cc12
5. COCc1nnc(S)s1

193 to 196 °C
222 to 224 °C
239 to 246 °C
158 to 160 °C
77 to 79 °C

====

measure_name: melting point

Before answering, review these 5 worked examples.
compound | melting point
O=C(O)c1cnc(Cl)c(Cl)c1 | 163 to 168 °C
CC(C)(C)OC(=O)N[C@H](CC#N)Cc1ccccc1 | 120 to 125 °C
Brc1ccc(-c2csnn2)cc1 | 154 to 156 °C
COC(=O)c1ccc(N)c(C)c1 | 116 to 117 °C
O=C(O)COCCNC(=O)C12CC3CC(CC(C3)C1)C2 | 120 to 124 °C

I would be grateful if you could provide melting point for each of the following entries.
1. NNc1nccc(C(F)(F)F)n1
2. COC1(OC)CC[C@]2(C)[C@H]3CC[C@]4(C)CCC[C@@]4(O)[C@@H]3CC[C@@]2(C)C1
3. Cc1nc(-c2cccc(N)c2)no1
4. CCOC(=O)c1c(SC)nn(S(=O)(=O)c2ccc(OC)cc2)c1N
5. Cc1c(S(=O)(=O)c2ccc(Cl)cc2)csc1C(=O)Cl
6. Cc1ccc(-n2c(=O)cc(C)n2C)cc1
7. O=c1[nH]c2ncccc2o1

1. 100 to 101 °C
2. 146 to 147 °C
3. 95 to 96 °C
4. 143 to 145 °C
5. 131 to 132 °C
6. 130 to 137 °C
7. 214 to 215 °C

For every item below, please supply its melting point.
1. O=C(N[C@H]1CCCC[C@H]1C(=O)O)OCc1ccccc1 (relative stereo)
2. O=[N+]([O-])c1ccc(Br)nc1
3. CC(=O)Nc1ccc(-c2ccc(F)cc2)cc1
4. O/N=C(/CC(NO)c1ccccc1)c1ccccc1 (configuration not stated)
5. COc1ccc(C(=O)C2=NOC3C(=O)N(c4ccc(Br)cc4)C(=O)C23)cc1 (configuration not stated)
6. CCOC(C)(C)C

1: 130 to 136 °C; 2: 138 °C; 3: 205 to 207 °C; 4: 141 °C; 5: 124 °C; 6: -94 °C

For each of the compounds below, state melting point.
1. CSC(=NS(=O)(=O)c1ccc(Br)cc1)SC
2. Nc1nc(F)nc2c1ncn2C1OC(CO)C(O)C1O (configuration not stated)
3. O=C(CBr)c1cccc2c1OCCO2
4. CCn1c2ccccc2c2cc(N)ccc21
5. NCc1cccc(-c2ccccc2)c1
6. O=C(OCCCl)OCCCl

100 to 105 °C
260 °C
71 to 72 °C
99 °C
28 to 30 °C
8 °C

For every listed record, write down its melting point.
1. COc1ccc(C=CC(=O)c2cccc(C(=O)C=Cc3ccc(OC)c(O)c3)c2)cc1O
2. O=[N+]([O-])c1c(Cl)c(Cl)c(Cl)c(Cl)c1NCc1ccccc1

1: > 200 °C; 2: 96 to 97 °C

For every item in the list below, what is its measured melting point?
1. CNC(N)=S
2. Nc1c(I)cc([N+](=O)[O-])cc1I
3. Cc1cnc(Br)c(N)c1
4. OCCCCCCCCCCCCBr

1. 120 °C
2. 251 to 256 °C
3. 105 °C
4. 34 °C

Give me melting point for each of these compounds, listed below.
1. O=C(O)C=Cc1ccccc1Cl
2. COC(=O)c1cc(C)n(C)n1
3. Nc1cccc(-n2cccc2)c1
4. COc1cc([N+](=O)[O-])ccc1S(=O)(=O)Cl
5. COc1cc2c(cc1C)C(Cl)C2 (configuration not stated)

1. 209 to 212 °C
2. 93 °C
3. 43 to 44 °C
4. 97 °C
5. 41 °C

State recorded melting point for all listed compounds.
1. CCC1(c2ccccc2)C(=O)NCNC1=O
2. Cc1c(CO)cnn1-c1ccccc1

1: 281 °C; 2: 88 to 89 °C
